# assay.target: FLK-1 receptor (Mus musculus)
# Construct: expressed in transfected cells; host or cells: NIH3T3 C7#3 (FLK-1/NIH3T3)
# Sequence (P35918 20-1345): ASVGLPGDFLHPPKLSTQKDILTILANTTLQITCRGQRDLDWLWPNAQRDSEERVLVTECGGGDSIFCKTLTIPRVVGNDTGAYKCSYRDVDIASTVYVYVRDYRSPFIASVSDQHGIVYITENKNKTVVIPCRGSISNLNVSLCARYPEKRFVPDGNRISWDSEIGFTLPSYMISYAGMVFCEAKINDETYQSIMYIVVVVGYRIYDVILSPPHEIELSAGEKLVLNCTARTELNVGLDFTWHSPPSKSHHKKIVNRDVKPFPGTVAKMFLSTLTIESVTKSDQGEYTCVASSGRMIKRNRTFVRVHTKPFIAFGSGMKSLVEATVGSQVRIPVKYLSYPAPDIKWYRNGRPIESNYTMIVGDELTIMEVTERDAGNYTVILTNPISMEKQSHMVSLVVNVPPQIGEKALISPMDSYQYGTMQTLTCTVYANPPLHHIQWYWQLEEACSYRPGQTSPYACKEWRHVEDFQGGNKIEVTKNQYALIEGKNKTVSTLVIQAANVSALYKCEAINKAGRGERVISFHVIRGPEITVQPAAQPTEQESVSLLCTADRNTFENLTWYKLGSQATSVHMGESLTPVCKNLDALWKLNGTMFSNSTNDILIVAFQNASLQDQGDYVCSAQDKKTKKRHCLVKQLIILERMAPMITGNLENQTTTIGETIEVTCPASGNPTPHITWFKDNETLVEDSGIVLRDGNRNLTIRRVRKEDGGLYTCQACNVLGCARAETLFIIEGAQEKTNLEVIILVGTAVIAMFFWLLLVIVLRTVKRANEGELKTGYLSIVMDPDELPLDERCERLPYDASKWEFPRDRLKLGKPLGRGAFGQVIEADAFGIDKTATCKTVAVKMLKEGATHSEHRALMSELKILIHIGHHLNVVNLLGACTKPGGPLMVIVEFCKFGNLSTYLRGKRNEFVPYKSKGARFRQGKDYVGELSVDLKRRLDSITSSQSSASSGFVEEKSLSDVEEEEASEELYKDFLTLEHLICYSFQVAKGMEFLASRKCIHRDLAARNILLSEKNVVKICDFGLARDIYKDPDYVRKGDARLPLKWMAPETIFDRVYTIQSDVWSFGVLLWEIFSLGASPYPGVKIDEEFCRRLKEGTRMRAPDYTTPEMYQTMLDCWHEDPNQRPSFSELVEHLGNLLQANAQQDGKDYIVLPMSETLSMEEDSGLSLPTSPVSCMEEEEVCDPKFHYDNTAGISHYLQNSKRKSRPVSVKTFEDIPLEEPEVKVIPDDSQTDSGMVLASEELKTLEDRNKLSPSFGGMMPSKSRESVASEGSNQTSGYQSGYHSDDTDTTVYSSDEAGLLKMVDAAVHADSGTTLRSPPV
# assay.summary: FLK-1 ELISA (catalytic activity of the FLK-1 receptor in FLK-1/NIH3T3 cells)
# Assay type: cell-based
# stated.conditions: Table 10; read-out: FLK Kinase IC50
// bucketize IC50: low (below 6 µM), intermediate (6 µM to below 10 µM), high (10 µM or more)

CCc1cc(CC)c(/C=C2\C(=O)Nc3cccc(C)c32)[nH]1 : high

Task: In plain terms, what class is O=C1Nc2ccc(Cl)cc2/C1=C/c1c[nH]cn1 ?
Output: low
